Test system: SK-MEL-28 melanoma
Experiment: NCI-60 one-dose screen, 48 h (100 = growth as untreated, 0 = no growth, -100 = all killed)
Settings: 10 µM unless noted
This is part of a sample that, as a whole, favours compounds with a hit. Of some 83,000 tested, about 20% had one in any assay.
Entry flag: TRUE if growth reaches 70%; FALSE if it does not.

Example cases with answers are listed next.
smiles data	experimental target	class assignment
CCN(CC)c1ccc(/C=C/C(=O)c2ccc(Nc3nc(Nc4ccccc4)nc(Nc4ccccc4)n3)cc2)cc1	SK-MEL-28 melanoma	FALSE
C=C1C(=O)O[C@H]2[C@H]1CC/C(COC(=O)NCc1cc[nH]c1)=C\CC[C@@]1(C)O[C@@H]21	SK-MEL-28 melanoma	FALSE
O=Cc1ccc([N+](=O)[O-])s1	SK-MEL-28 melanoma	TRUE
Cc1ccc(Sc2nnc(/N=C3\C(=O)Nc4ccccc43)s2)cc1	SK-MEL-28 melanoma	TRUE

Then there is this compound:
Say whether `Cc1ccccc1NC(=O)c1sc2nc(C)c(C(=O)/C=C/c3ccccc3)cc2c1N` shows growth of 70% or more.
FALSE

----------
System: 786-0 renal
Assay: NCI-60 one-dose screen, 48 h (100 = growth as untreated, 0 = no growth, -100 = all killed)
Conditions: 10 µM unless noted
The panel holds about 83,000 compounds, 20% with a hit somewhere; the sample as a whole holds those more often.
For each record, write down the corresponding growth.
Give bare numbers, in %.

Please report growth for every entry that follows.
1. CC(C)CCC[C@@H](C)[C@H]1CC[C@H]2[C@@H]3CC=C4C[C@@H](C(C(=O)O)C(=O)O)CC[C@]4(C)[C@H]3CC[C@]12C
2. Cc1ccc(Sc2oc(-c3ccc(C)cc3)nc2[P+](c2ccccc2)(c2ccccc2)c2ccccc2)cc1

-58.6
3.99

----------
Tested on: ACHN renal
Test: NCI-60 one-dose screen, 48 h
Details: 10 µM unless noted
This is part of a sample that, as a whole, favours compounds with a hit. Of some 83,000 tested, about 20% had one in any assay. The source made the active and inactive calls. The calls were made as follows: active = growth percent below 10; inactive = the rest.
Allowed answers: active, inactive

Example cases with answers are listed next.
compound	experimental target	class assignment
CCc1n(Cc2ccc3ccccc3c2)cc[n+]1Cc1ccc2ccccc2c1	ACHN renal	inactive
O=C1c2cc(Cl)ccc2S(=O)(=O)c2c(NCCCNCCO)nc3ccccc3c21	ACHN renal	active
Cc1c(-n2nnc(-c3nc4ccccc4s3)c2N)c(=O)n(-c2ccccc2)n1C	ACHN renal	inactive
O=C1c2ccc3c4ccc5c6c(ccc(c7ccc(c2c37)C(=O)N1CCC[P+](c1ccccc1)(c1ccccc1)c1ccccc1)c64)C(=O)N(CCC[P+](c1ccccc1)(c1ccccc1)c1ccccc1)C5=O	ACHN renal	inactive
C=CC(=O)NCc1ccc(Nc2nccc(-c3ccc(N4CCCC4)c(C#N)c3)n2)cc1	ACHN renal	inactive
CCN(CC)CCCN1C(=O)c2c(c(C)c3c(oc4cc(O)ccc43)c2C)C1=O	ACHN renal	inactive
CC(C)N1CN2C(=S)NC3C2N(C1)C(=S)N3C (configuration not stated)	ACHN renal	inactive
CC[C@@H](C(=O)[C@@H](C)[C@@H](O)[C@H](C)[C@@H]1O[C@@H]([C@@H](CC)C(=O)NCCc2ccc(F)cc2)CC[C@@H]1C)C1O[C@]2(C=CC(=O)[C@]3(CC[C@@](C)([C@H]4CC[C@](O)(CC)[C@H](C)O4)O3)O2)[C@H](C)C[C@@H]1C (some centres not stated)	ACHN renal	active
COc1ccc(OC)c(C(=O)/C=C/c2cc3c(c(OC)c2OC)OCO3)c1	ACHN renal	inactive
CC1(C)CCC(S(=O)(=O)c2ccc3c(c2)/C(=N\O)c2cc(S(=O)(=O)N4CCC(O)(c5cccc(C(F)(F)F)c5)CC4)ccc2-3)CC1	ACHN renal	active

What call does the record list for `COC(=O)c1cc(-c2ccccc2)[nH]c1N/N=C/c1c(Cl)cccc1Cl` ?
inactive

What call does the record list for `CC(=O)OC[C@]12CCC(C)(C)C[C@H]1[C@@]1(O)[C@H](O)C[C@@H]3[C@@]4(C)CCCNC(C)(C)[C@@H]4CC[C@@]3(C)[C@]1(C)CC2` ?
inactive

What call does the record list for `CN(CCOc1ccc(C#N)cc1)CCOc1ccc(C#N)cc1` ?
inactive

What call does the record list for `COc1ccc2nc3ccc(OC)cc3c(SCCCN)c2c1` ?
inactive

What call does the record list for O=S(=O)(Nc1ccccc1)c1ccc(C2CC3(Cl)C(Cl)=C(Cl)C2(Cl)C3(Cl)Cl)cc1 (configuration not stated) ?
inactive

What call does the record list for `COc1ccc2c(c1)c(-c1noc(C(=O)c3cn(C)c4ccc(Br)cc34)n1)cn2C` ?
inactive

What call does the record list for `O=C(CSc1nc2ccc([N+](=O)[O-])cc2[nH]1)Nc1cccc(C(F)(F)F)c1` ?
inactive

----------
System: EKVX NSCLC
Experiment: NCI-60 one-dose screen, 48 h
Details: 10 µM unless noted
Method: Growth inhibition of the EKVX human Non-Small Cell Lung tumor cell line is measured as a screen for anti-cancer activity. Cells are grown in 96 well plates and exposed to the test compound for 48 hours. Compounds are tested at a single concentration, which is 10^-5 M for most compounds. The reported endpoint is percent growth (GI% or GIPRCNT), where numbers from 0 - 100% represent growth inhibition, and numbers from -100% - 0 represent cell death. […]
About 83,000 compounds went through this panel and 20% of them were active in at least one assay; those are over-represented in the sample as a whole. Calls of active or inactive are those of the source. How the source made its calls: active means growth percent below 10; inactive means the rest.
Allowed answers: active, inactive

Example cases with answers are listed next.
molecule	class assignment
O=C1/C(=C/c2ccc(Cl)cc2)COc2ccc(O)cc21	inactive
COC(=O)[C@]1(C)CCC[C@]2(C)[C@H]3C[C@H]4C(C(C)C)=C[C@]3(CC[C@H]21)[C@H]1[C@@H]4[C@@H](OCCC#N)CC[C@@H]1OCCC#N	inactive
Cc1ccc(-c2nc(N3CCNCC3)c3oc(-c4ccccc4)nc3n2)cc1	inactive

What call does the record list for `CN(C)c1ccc(/C=C/C(=O)c2ccc(-n3cc(CN4CCN(c5cc6c(cc5F)c(=O)c(C(=O)O)cn6C5CC5)CC4)nn3)cc2)cc1` ?
inactive

What call does the record list for `CNC(=O)c1cc(Oc2ccc3c(c2)sc2nc(-c4cc(OC)c(OC)c(OC)c4)cn23)ccn1` ?
inactive

What call does the record list for `Cc1ccc(-c2nc3nc(-c4ccc(F)cc4)nc(N4CCNCC4)c3o2)cc1` ?
inactive

What call does the record list for COc1cc2c(c(OC)c1OC)C(=O)CC(c1cccc(NC(=O)c3ccc(Br)cc3)c1)O2 (centres undefined) ?
inactive

What call does the record list for `CC(C)(C)[Si](C)(C)O[C@H]1C(=O)C=CN2CC=C[C@@H]12` ?
inactive

What call does the record list for `CCCCOC(=O)OCc1cc(=O)c(O)co1` ?
inactive

What call does the record list for `O=C1/C(=C\c2cn(-c3ccccc3)nc2-c2ccc(-c3cccs3)cc2)CCc2ccccc21` ?
inactive

What call does the record list for `CCN(c1ccc(Cl)cc1)c1nc(-c2ccc([N+](=O)[O-])cc2)cs1` ?
inactive

What call does the record list for `Brc1c2c(c(Br)c3ccccc13)CCCC2` ?
inactive

What call does the record list for `N#C/C(=C\c1ccc(-c2ccc(Cl)cc2)o1)C(=O)Nc1ncc(Cc2ccc(Cl)cc2)s1` ?
inactive

What call does the record list for `COc1ccc(-c2ccc3cnc4sc(-c5ccc(OC)cc5)nc4c3n2)cc1` ?
inactive

What call does the record list for `CN(C)CCNC(=O)c1cccc(-c2cnc3ccc(-c4ccc5c(c4)OCO5)nn23)c1` ?
inactive

----------
Tested on: M14 melanoma
Test: NCI-60 one-dose screen, 48 h (100 = growth as untreated, 0 = no growth, -100 = all killed)
Settings: 10 µM unless noted
Compounds without any hit were thinned out: in the full panel of roughly 83,000, 20% have a hit.
value kind: growth (%)
Give bare numbers, in %.

Reference set, count: 3
compound	readout unit	growth
O=C(OCc1ccc2c(Cl)cc(Cl)c(O)c2n1)n1cncn1	%	20.4
COc1cc(-n2cc(-c3cc(O)c(C/C=C(\C)CCC=C(C)C)c(O)c3)nn2)cc2c1O[C@]1(C)CC[C@@H](O)C(C)(C)[C@H]1C2	%	-17.5
CN(C)CCCn1c2c(c3ncccc3c1=O)C(=O)c1ccccc1-2	%	48.6

Please report growth for every entry that follows.
1. CN(C)CCCC1(c2ccc(F)cc2)OCc2cc(-c3cccc4[nH]ccc34)ccc21 (stereo unspecified)
2. O=C(c1ccc(-c2ccccc2)cc1)c1ccc([N+](=O)[O-])cc1
3. C[C@@H]1CCC[C@H]1CC(N)C(=O)O (stereo partly specified)

-68.4
94.5
98.8

----------
Tested on: PC-3 prostate
Assay: NCI-60 one-dose screen, 48 h
Conditions: 10 µM unless noted
This is part of a sample that, as a whole, favours compounds with a hit. Of some 83,000 tested, about 20% had one in any assay. Active and inactive are the calls of the source. How the source made its calls: active means growth percent below 10; inactive means the rest.
Allowed answers: 1 (yes) = active, 0 (no) = inactive

What call does the record list for CC(C)NC1CCC(Nc2ccnc3cc(Cl)ccc23)CC1 (stereo not given) ?
0 (no)

What call does the record list for `COc1ccc(/C=N/NC(=O)CCN2c3ccccc3Sc3ccccc32)cc1` ?
0 (no)

What call does the record list for `Cc1ccc(Sc2oc(-c3ccc(C)cc3)nc2[P+](c2ccccc2)(c2ccccc2)c2ccccc2)cc1` ?
1 (yes)

What call does the record list for `CN1CCN(C(=O)c2ccc(NC(=O)Nc3ccc(-c4nc(N5CCOCC5)c5cccn5n4)cc3)cc2)CC1` ?
1 (yes)

What call does the record list for O=S(=O)(Nc1ccccc1)c1ccc(C2CC3(Cl)C(Cl)=C(Cl)C2(Cl)C3(Cl)Cl)cc1 (stereo not given) ?
0 (no)
